Experiment: Solvent solubility screen of the compound of Formula II
Type: physicochemical
Conditions: 40 °C, organic solvent or mixture, thermodynamic from solid; DCM; (P) partial solubility at 100 volumes; read-out: Approximate solubility
assayMetric: solubility

Q: Field request: solubility | item: COc1ccc(CN2C3CC2CN(c2ccc(-c4cc(OCC(C)(C)O)cn5ncc(C#N)c45)cn2)C3)cn1
Result: < 5000 µg/mL

* * *

Assay: Solubility of the free base of the compound of Formula I in solvents and mixed solvent systems
Type: physicochemical
Conditions: 25 °C, organic solvent or mixture, thermodynamic from solid; 90% DMSO in EtOH, room temperature; read-out: Solubility
assayMetric: solubility
Respond with a number, then the unit of measure.

Q: Quick check: solubility of COc1ccc(CN2CCN(c3ccc(-c4cc(-c5cnn(C)c5)cn5ncc(C#N)c45)cn3)CC2)cn1 [freebase of the compound of Formula I] ?
Result: 4440 µg/mL

* * *

Assay: Solubility of the free base of the compound of Formula I in solvents and mixed solvent systems
Assay type: physicochemical
Settings: 25 °C, organic solvent or mixture, thermodynamic from solid; 30% THF in EtOH, room temperature; read-out: Solubility
assayMetric: solubility (µg/mL)
Give bare numbers, in µg/mL.

Q: Name the reported solubility value associated with the compound COc1ccc(CN2CCN(c3ccc(-c4cc(-c5cnn(C)c5)cn5ncc(C#N)c45)cn3)CC2)cn1 [freebase of the compound of Formula I]
Result: 550

* * *

Assay: Solubility of the free base of the compound of Formula I in solvents and mixed solvent systems
Assay type: physicochemical
Settings: 25 °C, organic solvent or mixture, thermodynamic from solid; 100% DMSO in EtOH, room temperature; read-out: Solubility
assayMetric: solubility

Q: Form field: reported solubility of COc1ccc(CN2CCN(c3ccc(-c4cc(-c5cnn(C)c5)cn5ncc(C#N)c45)cn3)CC2)cn1 [freebase of the compound of Formula I]
Result: 6960 µg/mL

* * *

Assay: Stability screening of freebase and selected salts of Formula I, 40° C. and 75% RH, weekly HPLC over 4 weeks
Settings: stored at 40° C. and 75% RH; 3 weeks
Kindly supply the reported Stability, HPLC analysis, T = 3 weeks values for the records listed here.
Numbers only, in %.

COc1ccc(CN2CCN(c3ccc(-c4cc(-c5cnn(C)c5)cn5ncc(C#N)c45)cn3)CC2)cn1 [Freebase I]    97.1

Give one value of Stability, HPLC analysis, T = 3 weeks per listed compound.
1. COc1ccc(CN2CCN(c3ccc(-c4cc(-c5cnn(C)c5)cn5ncc(C#N)c45)cn3)CC2)cn1.O=C(O)C[C@@H](O)C(=O)O [D-malic acid salt]
2. COc1ccc(CN2CCN(c3ccc(-c4cc(-c5cnn(C)c5)cn5ncc(C#N)c45)cn3)CC2)cn1.Cl [HCl salt]

Result:
1. 97.2
2. 99.3

Q: Given COc1ccc(CN2CCN(c3ccc(-c4cc(-c5cnn(C)c5)cn5ncc(C#N)c45)cn3)CC2)cn1.O=C(O)C[C@H](O)C(=O)O [L-malic acid salt] , state its recorded Stability, HPLC analysis, T = 3 weeks.
Result: 97.4

* * *

Experiment: Solvent solubility screen of the compound of Formula II
Format: physicochemical
Conditions: MIBK, 40 °C, organic solvent or mixture, thermodynamic from solid; read-out: Approximate solubility
assayMetric: solubility

Q: # query: solubility of entry COc1ccc(CN2C3CC2CN(c2ccc(-c4cc(OCC(C)(C)O)cn5ncc(C#N)c45)cn2)C3)cn1
Result: < 5000 µg/mL
